Cited source for all entries: ChEMBL document CHEMBL4196231

# target under test: Protein ENL (Homo sapiens, UniProt Q03111)
# Sequence (Q03111 whole entry): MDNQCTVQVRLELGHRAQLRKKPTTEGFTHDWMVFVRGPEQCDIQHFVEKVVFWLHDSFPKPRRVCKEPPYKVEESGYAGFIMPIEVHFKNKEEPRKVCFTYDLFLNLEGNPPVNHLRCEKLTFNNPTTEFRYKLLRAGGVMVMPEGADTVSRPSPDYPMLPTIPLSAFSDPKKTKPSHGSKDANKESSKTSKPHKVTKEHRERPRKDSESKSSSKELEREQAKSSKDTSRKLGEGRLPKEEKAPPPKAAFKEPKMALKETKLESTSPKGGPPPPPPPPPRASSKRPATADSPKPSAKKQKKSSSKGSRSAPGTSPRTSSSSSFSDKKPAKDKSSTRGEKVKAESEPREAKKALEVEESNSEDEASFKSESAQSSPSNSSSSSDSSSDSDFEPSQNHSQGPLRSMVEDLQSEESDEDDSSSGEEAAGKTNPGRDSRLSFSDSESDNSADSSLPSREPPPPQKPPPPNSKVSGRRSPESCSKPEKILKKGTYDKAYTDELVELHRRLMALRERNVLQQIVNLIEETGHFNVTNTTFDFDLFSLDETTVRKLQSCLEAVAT
Square brackets hold non-standard residues; d marks the D form. Peptide text beside a SMILES is read from it. * marks the point of attachment. X3 = c1ccc(-c2cn(CC3CCCCC3)c([C@@H]3CCCN3*)n2)cc1; 1Nal = N[C@@H](Cc1cccc2ccccc12)C(=O)O; Ala(cPent) = N[C@@H](CC1CCCC1)C(=O)O; Dap = NC[C@H](N)C(=O)O; Bz = O=C(c1ccccc1)*
readout label: Ki (nM)

| compound | target under test | endpoint value |
| --- | --- | --- |
| CC(=O)N[C@@H](CC(C)C)C(=O)N1CCC[C@H]1C(=O)N[C@H](C(=O)N[C@@H](CN)C(=O)N[C@@H](CC1CCCC1)C(=O)N1CCC[C@H]1c1nc(-c2ccccc2)cn1CC1CCCCC1)C(C)C (Ac-LPV[Dap][Ala(cPent)]-X3) | Protein ENL (Homo sapiens, UniProt Q03111) | 101 |
| CC[C@H](C)[C@H](NC(=O)[C@@H]1CCCN1C(=O)[C@H](CC(C)C)NC(C)=O)C(=O)N[C@@H](CO)C(=O)N[C@@H](Cc1c[nH]c2ccccc12)C(=O)N1CCC[C@H]1C(=O)N[C@@H](CC(C)C)C(=O)N(C)C (Ac-LPISWPL-NMe2) | Protein ENL (Homo sapiens, UniProt Q03111) | 2350 |
| CC(C)[C@H](NC(=O)[C@@H]1CCCN1C(=O)c1ccccc1)C(=O)N[C@@H](CN)C(=O)N[C@@H](CC1CCCC1)C(=O)N1CCC[C@H]1c1nc(-c2ccccc2)cn1CC1CCCCC1 (Bz-PV[Dap][Ala(cPent)]-X3) | Protein ENL (Homo sapiens, UniProt Q03111) | 119 |
| CC[C@H](C)[C@H](NC(=O)[C@@H]1CCCN1C(=O)[C@H](CC(C)C)NC(C)=O)C(=O)N[C@@H](CO)C(=O)N[C@@H](Cc1cccc2ccccc12)C(=O)N1CCC[C@H]1C(=O)N[C@@H](CC(C)C)C(=O)N(C)C (Ac-LPIS[1Nal]PL-NMe2) | Protein ENL (Homo sapiens, UniProt Q03111) | 20100 |

---

# target under test: Protein AF-9 (Homo sapiens)
# Sequence (P42568 whole entry, the tested form may be a part): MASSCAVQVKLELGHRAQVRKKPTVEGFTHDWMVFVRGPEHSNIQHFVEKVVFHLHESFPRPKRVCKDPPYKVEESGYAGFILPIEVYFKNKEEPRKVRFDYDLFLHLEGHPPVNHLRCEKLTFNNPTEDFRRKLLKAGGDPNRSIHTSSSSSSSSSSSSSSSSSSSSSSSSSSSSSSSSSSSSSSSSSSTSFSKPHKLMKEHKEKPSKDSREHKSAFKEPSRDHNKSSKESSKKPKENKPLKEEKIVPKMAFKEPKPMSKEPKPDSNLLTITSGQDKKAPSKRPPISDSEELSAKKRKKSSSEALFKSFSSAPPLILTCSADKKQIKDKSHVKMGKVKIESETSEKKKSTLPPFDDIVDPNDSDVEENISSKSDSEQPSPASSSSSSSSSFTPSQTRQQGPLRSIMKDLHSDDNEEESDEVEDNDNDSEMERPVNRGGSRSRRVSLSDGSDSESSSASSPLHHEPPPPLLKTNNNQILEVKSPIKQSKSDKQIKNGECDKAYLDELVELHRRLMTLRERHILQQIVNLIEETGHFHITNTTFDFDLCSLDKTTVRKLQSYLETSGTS
# procedure details: Displacement of N-Flu-DOT1L from MBP-tagged AF9 (unknown origin) (487 to 568 residues) expressed in Escherichia coli BL21(DE3) measured after 3 hrs by fluorescence polarization assay
Square brackets hold non-standard residues; d marks the D form. Peptide text beside a SMILES is read from it. * marks the point of attachment. X3 = c1ccc(-c2cn(CC3CCCCC3)c([C@@H]3CCCN3*)n2)cc1; X1 = CCn1cc(-c2ccccc2)nc1[C@@H]1CCCN1*; Ala(cPent) = N[C@@H](CC1CCCC1)C(=O)O; Dap = NC[C@H](N)C(=O)O; Bz = O=C(c1ccccc1)*

| compound | target under test | unit descriptor | IC50 |
| --- | --- | --- | --- |
| CC[C@H](C)[C@H](NC(=O)[C@@H]1CCCN1C(=O)[C@H](CC(C)C)NC(C)=O)C(=O)N[C@@H](CO)C(=O)N[C@@H](CC1CCCC1)C(=O)N1CCC[C@H]1C(=O)N[C@@H](CC(C)C)C(=O)N(C)C (Ac-LPIS[Ala(cPent)]PL-NMe2) | Protein AF-9 (Homo sapiens) | nM | 850 |
| CC[C@H](C)[C@H](NC(=O)[C@@H]1CCCN1C(=O)[C@H](CC(C)C)NC(C)=O)C(=O)N[C@@H](CN)C(=O)N[C@@H](CC1CCCC1)C(=O)N1CCC[C@H]1C(=O)N[C@@H](CC(C)C)C(=O)N(C)C (Ac-LPI[Dap][Ala(cPent)]PL-NMe2) | Protein AF-9 (Homo sapiens) | nM | 120 |
| CCn1cc(-c2ccccc2)nc1[C@@H]1CCCN1C(=O)[C@H](CC1CCCC1)NC(=O)[C@H](CN)NC(=O)[C@@H](NC(=O)[C@@H]1CCCN1C(=O)[C@H](CC(C)C)NC(C)=O)C(C)C (Ac-LPV[Dap][Ala(cPent)]-X1) | Protein AF-9 (Homo sapiens) | nM | 341 |
| CC(C)[C@H](NC(=O)[C@@H]1CCCN1C(=O)c1ccccc1)C(=O)N[C@@H](CN)C(=O)N[C@@H](CC1CCCC1)C(=O)N1CCC[C@H]1c1nc(-c2ccccc2)cn1CC1CCCCC1 (Bz-PV[Dap][Ala(cPent)]-X3) | Protein AF-9 (Homo sapiens) | nM | 57 |

---

pIC50: −log10 of the molar value. Square brackets hold non-standard residues; d marks the D form. Peptide text beside a SMILES is read from it. 2Nal = N[C@@H](Cc1ccc2ccccc2c1)C(=O)O; Cha = N[C@@H](CC1CCCCC1)C(=O)O
Target or system Protein ENL (Homo sapiens, UniProt Q03111); recorded quantity pIC50.
readout label: pIC50

| molecule | readout label | endpoint value |
| --- | --- | --- |
| CC[C@H](C)[C@H](NC(=O)[C@@H]1CCCN1C(=O)[C@H](CC(C)C)NC(C)=O)C(=O)N[C@@H](CO)C(=O)N[C@@H](CC1CCCCC1)C(=O)N1CCC[C@H]1C(=O)N[C@@H](CC(C)C)C(=O)N(C)C (Ac-LPIS[Cha]PL-NMe2) | pIC50 | 5.22 |
| CC[C@H](C)[C@H](NC(=O)[C@@H]1CCCN1C(=O)[C@H](CC(C)C)NC(C)=O)C(=O)N[C@@H](CO)C(=O)N[C@@H](Cc1ccc2ccccc2c1)C(=O)N1CCC[C@H]1C(=O)N[C@@H](CC(C)C)C(=O)N(C)C (Ac-LPIS[2Nal]PL-NMe2) | pIC50 | 4.37 |

---

Catalogue of compounds with associated pKi
# target under test: UniProt Q03111
# procedure details: Displacement of N-Flu-DOT1L from MBP-tagged ENL (unknown origin) (489 to 559 residues) expressed in Escherichia coli BL21(DE3) measured after 3 hrs by fluorescence polarization assay
pKi: −log10 of the molar value. Square brackets hold non-standard residues; d marks the D form. Peptide text beside a SMILES is read from it. * marks the point of attachment. X3 = c1ccc(-c2cn(CC3CCCCC3)c([C@@H]3CCCN3*)n2)cc1; Ala(cPent) = N[C@@H](CC1CCCC1)C(=O)O; Gly(cPent) = N[C@H](C(=O)O)C1CCCC1; Ala(cPr) = N[C@@H](CC1CC1)C(=O)O; Pentanoyl(4-Me) = CC(C)CCC(=O)*; Cha = N[C@@H](CC1CCCCC1)C(=O)O; Cba = N[C@@H](CC1CCC1)C(=O)O; Orn = NCCC[C@H](N)C(=O)O; Dap = NC[C@H](N)C(=O)O

| compound | pKi |
| --- | --- |
| CC[C@H](C)[C@H](NC(=O)[C@@H]1CCCN1C(=O)[C@H](CC(C)C)NC(C)=O)C(=O)N[C@@H](CCCN)C(=O)N[C@H](C(=O)N1CCC[C@H]1C(=O)N[C@@H](CC(C)C)C(=O)N(C)C)[C@@H](C)CC (Ac-LPI[Orn]IPL-NMe2) | 4.22 |
| CC[C@H](C)[C@H](NC(=O)[C@H](CO)NC(=O)[C@H](CC1CC1)NC(=O)[C@@H]1CCCN1C(=O)[C@H](CC(C)C)NC(C)=O)C(=O)N1CCC[C@H]1C(=O)N[C@@H](CC(C)C)C(=O)N(C)C (Ac-LP[Ala(cPr)]SIPL-NMe2) | 5.31 |
| CC[C@H](C)[C@H](NC(=O)[C@@H]1CCCN1C(=O)[C@H](CC(C)C)NC(C)=O)C(=O)N[C@@H](CN)C(=O)N[C@H](C(=O)N1CCC[C@H]1C(=O)N[C@@H](CC(C)C)C(=O)N(C)C)[C@@H](C)CC (Ac-LPI[Dap]IPL-NMe2) | 5.91 |
| CC[C@H](C)[C@H](NC(=O)[C@H](CO)NC(=O)[C@@H](NC(=O)[C@@H]1CCCN1C(=O)[C@H](CC(C)C)NC(C)=O)C(C)C)C(=O)N1CCC[C@H]1C(=O)N[C@@H](CC(C)C)C(=O)N(C)C (Ac-LPVSIPL-NMe2) | 6.00 |
| CC[C@H](C)[C@H](NC(=O)[C@@H]1CCCN1C(=O)[C@H](CC(C)C)NC(C)=O)C(=O)N[C@@H](CO)C(=O)N[C@@H](CC1CCCC1)C(=O)N1CCC[C@H]1C(=O)N[C@@H](CC(C)C)C(=O)N(C)C (Ac-LPIS[Ala(cPent)]PL-NMe2) | 6.29 |
| CC[C@H](C)[C@H](NC(=O)[C@@H]1CCCN1C(=O)[C@H](CC(C)C)NC(C)=O)C(=O)N[C@@H](CO)C(=O)N[C@@H](Cc1ccccc1)C(=O)N1CCC[C@H]1C(=O)N[C@@H](CC(C)C)C(=O)N(C)C (Ac-LPISFPL-NMe2) | 5.11 |
| CC[C@H](C)[C@H](NC(=O)[C@H](CO)NC(=O)[C@H](CC1CCC1)NC(=O)[C@@H]1CCCN1C(=O)[C@H](CC(C)C)NC(C)=O)C(=O)N1CCC[C@H]1C(=O)N[C@@H](CC(C)C)C(=O)N(C)C (Ac-LP[Cba]SIPL-NMe2) | 5.09 |
| CC[C@H](C)[C@H](NC(=O)[C@H](CO)NC(=O)[C@H](Cc1ccccc1)NC(=O)[C@@H]1CCCN1C(=O)[C@H](CC(C)C)NC(C)=O)C(=O)N1CCC[C@H]1C(=O)N[C@@H](CC(C)C)C(=O)N(C)C (Ac-LPFSIPL-NMe2) | 4.21 |
| CC[C@H](C)[C@H](NC(=O)[C@@H]1CCCN1C(=O)[C@H](CC(C)C)NC(C)=O)C(=O)N[C@@H](CO)C(=O)N[C@H](C(=O)N1CCC[C@H]1C(=O)N[C@@H](CC(C)C)C(=O)N(C)C)C1CCCC1 (Ac-LPIS[Gly(cPent)]PL-NMe2) | 5.87 |
| CC(C)CCC(=O)N1CCC[C@H]1C(=O)N[C@H](C(=O)N[C@@H](CN)C(=O)N[C@@H](CC1CCCC1)C(=O)N1CCC[C@H]1c1nc(-c2ccccc2)cn1CC1CCCCC1)C(C)C ({Pentanoyl(4-Me)}-PV[Dap][Ala(cPent)]-X3) | 7.25 |
| CC[C@H](C)[C@H](NC(=O)[C@@H]1CCCN1C(=O)[C@H](CC(C)C)NC(C)=O)C(=O)N[C@@H](CO)C(=O)N[C@@H](CC1CCCCC1)C(=O)N1CCC[C@H]1C(=O)N[C@@H](CC(C)C)C(=O)N(C)C (Ac-LPIS[Cha]PL-NMe2) | 5.73 |
| CC[C@H](C)[C@H](NC(=O)[C@@H]1CCCN1C(=O)[C@H](CC(C)C)NC(C)=O)C(=O)N[C@@H](CO)C(=O)N[C@H](C(=O)N1CCC[C@H]1C(=O)N[C@@H](CC(C)C)C(=O)N(C)C)[C@@H](C)CC (Ac-LPISIPL-NMe2) | 5.67 |
| CC[C@H](C)[C@H](NC(=O)[C@H](CO)NC(=O)[C@H](CC(C)C)NC(=O)[C@@H]1CCCN1C(=O)[C@H](CC(C)C)NC(C)=O)C(=O)N1CCC[C@H]1C(=O)N[C@@H](CC(C)C)C(=O)N(C)C (Ac-LPLSIPL-NMe2) | 4.82 |
